# Assay Text: logP determination by HPLC on reverse-phase column (C 18), acidic range pH 2.3
# Assay type: physicochemical
# Condition Details: reverse-phase HPLC column (C 18)
Recorded chromatographic logP by entry

[[record]]
compound_structure = "CC(=O)c1ccc(-c2ccccc2N)cc1"
reported_property = "chromatographic logP"
assay_result = 1.8

[[record]]
compound_structure = "C/C(=N\\OCC=C(Cl)Cl)c1ccc(-c2ccccc2NC(=O)c2cn(C)nc2C)cc1"
reported_property = "chromatographic logP"
assay_result = 3.97

[[record]]
compound_structure = "C/C(=N/OCC=C(Cl)Cl)c1ccc(-c2ccccc2NC(=O)c2cccnc2Cl)cc1"
reported_property = "chromatographic logP"
assay_result = 4.43


Quick check: chromatographic logP of `CC(=O)c1ccc(-c2ccccc2NC(=O)c2cccnc2Cl)cc1` ?
2.12

Value lookup for chromatographic logP; key = `C=CCO/N=C(\C)c1ccc(-c2ccccc2NC(=O)c2c(C)nn(C)c2F)cc1`
3.8

###

logP (pH 2.3) by entry:
# Assay Text: logP determination by HPLC on reverse-phase column (C 18), acidic range pH 2.3
# Assay type: physicochemical
# Condition Details: HPLC, C 18 reverse-phase, 43° C.
Give only the figure.

[[record]]
molecule = "C=CCO/N=C(/C)c1ccc(-c2ccccc2NC(=O)c2ccoc2C)cc1 [Compound 38]"
reported_property = "logP (pH 2.3)"
assay_result = 4.14

[[record]]
molecule = "C=C(C)CO/N=C(/C)c1ccc(-c2ccccc2NC(=O)c2c(C)nn(C)c2F)cc1 [Compound 36]"
reported_property = "logP (pH 2.3)"
assay_result = 4.18

[[record]]
molecule = "C#CCO/N=C(\\C)c1ccc(-c2ccccc2NC(=O)c2cn(C)nc2C(F)(F)F)cc1 [Compound 70]"
reported_property = "logP (pH 2.3)"
assay_result = 3.36

[[record]]
molecule = "C#CCO/N=C(\\C)c1ccc(-c2ccccc2NC(=O)c2ccccc2C(F)(F)F)cc1 [Compound 73]"
reported_property = "logP (pH 2.3)"
assay_result = 3.83

[[record]]
molecule = "C#CCO/N=C/c1ccc(-c2ccccc2NC(=O)c2cccnc2Cl)cc1 [Compound 82]"
reported_property = "logP (pH 2.3)"
assay_result = 2.92

[[record]]
molecule = "C/C(=N/OCC=C(Cl)Cl)c1ccc(-c2ccccc2NC(=O)c2ccoc2C)cc1 [Compound 61]"
reported_property = "logP (pH 2.3)"
assay_result = 4.98

[[record]]
molecule = "C=C(C)CO/N=C(/C)c1ccc(-c2ccccc2NC(=O)c2cn(C)nc2C(F)(F)F)cc1 [Compound 48]"
reported_property = "logP (pH 2.3)"
assay_result = 4.14


Kindly consider the entry below.
Would you kindly share the measured logP (pH 2.3) for C#CCO/N=C(\C)c1ccc(-c2ccccc2NC(=O)c2ccccc2I)cc1 [Compound 79] ?
3.81
